Values from patent US20230374150A1

Target: T1, Human PSMA antigen (human, UniProt Q04609 44-750, limits assumed)
T1 construct: This is the antigen immobilised on the Biacore chip; also called FOLH1_HUMAN
T1 sequence (Q04609 44-750 limits assumed): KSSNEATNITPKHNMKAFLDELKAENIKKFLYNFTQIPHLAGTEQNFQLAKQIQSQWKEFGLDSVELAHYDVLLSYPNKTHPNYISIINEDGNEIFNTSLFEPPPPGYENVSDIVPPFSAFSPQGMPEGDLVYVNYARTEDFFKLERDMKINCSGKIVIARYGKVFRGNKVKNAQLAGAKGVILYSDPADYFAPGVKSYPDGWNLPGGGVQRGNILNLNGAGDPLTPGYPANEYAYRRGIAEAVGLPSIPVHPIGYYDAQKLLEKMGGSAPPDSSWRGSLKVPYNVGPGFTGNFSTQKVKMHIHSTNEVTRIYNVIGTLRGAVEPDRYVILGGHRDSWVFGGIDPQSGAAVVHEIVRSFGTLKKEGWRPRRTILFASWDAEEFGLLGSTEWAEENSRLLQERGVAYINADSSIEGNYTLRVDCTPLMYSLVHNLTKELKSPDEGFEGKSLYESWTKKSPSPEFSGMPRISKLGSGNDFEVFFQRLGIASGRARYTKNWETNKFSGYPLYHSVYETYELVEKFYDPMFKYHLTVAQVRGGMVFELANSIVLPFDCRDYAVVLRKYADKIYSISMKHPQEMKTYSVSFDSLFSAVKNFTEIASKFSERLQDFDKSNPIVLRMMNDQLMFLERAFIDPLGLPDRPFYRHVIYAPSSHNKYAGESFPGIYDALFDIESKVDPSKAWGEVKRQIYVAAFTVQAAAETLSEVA
Experiment: SPR (Biacore), 37 C, antibody over immobilized PSMA
Source text: The calculated kinetic parameters derived from SPR are shown in FIG. 4C, showing distinct differences in affinities when compared to the chimeric and the original mouse antibody J591. Increased affinity of anti-PSMA antibodies should translate into higher potency, while lower affinity anti-PSMA antibodies into lower toxicity. This affinity modulation is achieved without altering the CDR sequences. […]
Friendly reminder: Kd below 5 nM is T, at or above is F.

>>> answer_label("huJ591 clone having combination of J591_VL-1 and J591_VH-3 (antibody, V domains shown, also called the select clone) VH: QVQLVQSGAEVKKPGASVKVSCKASGYTFTEYTMHWVRQAPGQRLEWMGNINPNNGGTTYSQKFQGRVTITVDKSASTAYMELSSLRSEDTAVYYCAAGWNFDYWGQGTLVTVSS VL: DIQLTQSPSFLSASVGDRVTITCRASQDVGTALDWYQQKPGKAPKLLIYWASTLHSGVPSRFSGSGSGTEFTLTISSLQPEDFATYYCQQYNSYPLTFGQGTKLEIKR")
"T"
>>> answer_label("huJ591 (J591_VH-1 + J591_VL-1) (antibody, human IgG1, V domains shown, One of the 9 huJ591 versions made from three heavy and three light chain designs; Human IgG1 frameworks, expressed in CHO cells) VH: QVQLVQSGAEVKKPGASVKVSCKASGYTFTEYTMHWVRQAPGQGLEWMGNINPNNGGTTYAQKFQGRVTMTRDKSISTAYMELSRLRSDDTAVYYCAAGWNFDYWGQGTLVTVSS VL: DIQLTQSPSFLSASVGDRVTITCRASQDVGTALDWYQQKPGKAPKLLIYWASTLHSGVPSRFSGSGSGTEFTLTISSLQPEDFATYYCQQYNSYPLTFGQGTKLEIK")
"T"
>>> answer_label("huJ591 (J591_VH-2 + J591_VL-2) (antibody, human IgG1, V domains shown, One of the 9 huJ591 versions; Human IgG1 frameworks) VH: QVQLVQSGAEVKKPGASVKVSCKASGYTFTEYTMHWVRQAPGQGLEWMGNINPNNGGTTYNQKFQGRVTMTVDKSISTAYMELSRLRSDDTAVYYCAAGWNFDYWGQGTLVTVSS VL: DIQLTQSPSFLSASVGDRVTITCRASQDVGTALDWYQQKPGKAPKLLIYWASTRHSGVPSRFSGSGSGTEFTLTISSLQPEDFATYYCQQYNSYPLTFGQGTKLEIK")
"T"
>>> answer_label("huJ591 (J591_VH-3 + J591_VL-2) (antibody, human IgG1, V domains shown, One of the 9 huJ591 versions; Human IgG1 frameworks) VH: QVQLVQSGAEVKKPGASVKVSCKASGYTFTEYTMHWVRQAPGQRLEWMGNINPNNGGTTYSQKFQGRVTITVDKSASTAYMELSSLRSEDTAVYYCAAGWNFDYWGQGTLVTVSS VL: DIQLTQSPSFLSASVGDRVTITCRASQDVGTALDWYQQKPGKAPKLLIYWASTRHSGVPSRFSGSGSGTEFTLTISSLQPEDFATYYCQQYNSYPLTFGQGTKLEIK")
"T"

q: Would you kindly verify if Kd of murine J591 (antibody, V domains shown, also called original mouse antibody J591; mouse J591) VH: EVQLQQSGPELVKPGTSVRISCKTSGYTFTEYTIHWVKQSHGKSLEWIGNINPNNGGTTYNQKFEDKATLTVDKSSSTAYMELRSLTSEDSAVYYCAAGWNFDYWGQGTTLTVSS VL: DIVMTQSHKFMSTSVGDRVSIICKASQDVGTAVDWYQQKPGQSPKLLIYWASTRHTGVPDRFTGSGSGTDFTLTITNVQSEDLADYFCQQYNSYPLTFGAGTMLDLKR is strictly less than 5 nM?
a: F
